Origin of values: ChEMBL document CHEMBL1201862

For each entry below, report its GI50 value.
- Test system: U-251
- assayDetails: NCI tumour cell line growth inhibition, 48 h
Activity calls are given as the source filed them. No stated cut-off is given here; in the data, active = GI50 up to about 1.1 µM and inactive = higher.

Inquiry: Which GI50 is reported for this compound? O=c1[nH]n(Cc2ccccn2)c2ccc([N+](=O)[O-])cc12
Reply text: > 100 µM (inactive)

Inquiry: Okay, and CCOC(OC1=C(C#N)CCCC1)C(CC)[Se]c1ccccc1[N+](=O)[O-] (configuration not stated) ?
Reply text: 16.6 µM (inactive)

Inquiry: Note, next up: CC(=O)N(O)[C@@H]1CC[C@H](n2cnc3c(N)ncnc32)C1
Reply text: > 100 µM (inactive)

Inquiry: Note, next up: C=C(C)C1CC=C(C)C(=O)C1 (configuration not stated)
Reply text: > 100 µM (inactive)

Inquiry: Param item: Ic1ncnc2c1ncn2C1CCCO1 (configuration not stated)
Reply text: > 100 µM (inactive)

Inquiry: Can you check CC1(n2nc(-c3ccccc3)n(-c3ccccc3)c2=O)CSC1 next?
Reply text: > 100 µM (inactive)

Inquiry: What do you get for CC(C)(C)[Si](C)(C)OCC1OC(n2cnc3c(N)ncnc32)C2OC(=S)OC12 (configuration not stated) ?
Reply text: 25.2 µM (inactive)

Inquiry: // query: O=C(c1ccccc1)[C@H]1Nc2ccc(Cl)cc2[C@H]2OCCC[C@@H]12
Reply text: 17.3 µM (inactive)

Inquiry: Param item: COc1cc(OC)c(C#N)c(OC)c1C
Reply text: > 100 µM (inactive)

Inquiry: Would you mind doing Cc1nc2ccc(NCCN(C)C)c3c(=O)c4ccccc4n1c23 as well?
Reply text: 2.22 µM (inactive)

Inquiry: Field entry: NNC(=O)CCC(=O)Nc1ccc(Cl)cc1Cl
Reply text: > 100 µM (inactive)

Inquiry: Follow-up item: O=C(O)C1C2OC(C(Br)C2Br)C1C(=O)O (configuration not stated)
Reply text: > 100 µM (inactive)
